- System name: T1, human DLL3 (immobilized human DLL3 or h293-hDLL3 cells) (human, UniProt Q9NYJ7 27-492, limits assumed)
- T1 construct: the sentence says 'immobilized human DLL3 or h293-hDLL3 cells'
- T1 sequence: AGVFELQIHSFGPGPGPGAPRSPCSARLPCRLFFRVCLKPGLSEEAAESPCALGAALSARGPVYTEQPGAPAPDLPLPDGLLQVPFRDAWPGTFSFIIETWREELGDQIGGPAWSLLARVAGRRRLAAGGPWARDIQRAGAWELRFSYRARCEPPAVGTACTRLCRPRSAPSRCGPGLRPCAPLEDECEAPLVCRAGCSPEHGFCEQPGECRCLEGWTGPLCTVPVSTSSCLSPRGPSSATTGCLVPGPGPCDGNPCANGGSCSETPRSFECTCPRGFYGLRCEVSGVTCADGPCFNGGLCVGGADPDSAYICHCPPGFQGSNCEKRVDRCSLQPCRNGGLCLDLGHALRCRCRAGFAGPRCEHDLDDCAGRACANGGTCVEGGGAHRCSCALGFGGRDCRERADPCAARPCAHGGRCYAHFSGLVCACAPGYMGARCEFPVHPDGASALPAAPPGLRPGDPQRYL
- Test name: hybridoma screening on immobilized human DLL3 or on h293-hDLL3 cells
Measurement type: binding result

{"Binder": "SC16.56 (antibody, V domains shown, murine mAb; variable regions only) VH: QIQLVQSGPELKKPGETVKISCKASGYTFTNYGMNWVKQAPGKGLKWMAWINTYTGEPTYADDFKGRFAFSLETSASTASLQIINLKNEDTATYFCARIGDSSPSDYWGQGTTLTVSS VL: SIVMTQTPKFLLVSAGDRVTITCKASQSVSNDVVWYQQKPGQSPKLLIYYASNRYTGVPDRFAGSGYGTDFSFTISTVQAEDLAVYFCQQDYTSPWTFGGGTKLEIR", "Observed": "binds"}
{"Binder": "SC16.111 (antibody, V domains shown, murine mAb; variable regions only) VH: EVQLQQSGPELEKPGASVKISCKASGYSFTGYNMNWVKQSNGKSLEWIGNIDPYYGGSSYKQKFEGKATLTVDKSSSTAYMQLKSLTSEDSAVYYCARGGSNFFDYWGQGTTLTVSS VL: DIQMTQSPASLAASVGETVTITCRASENIYYSLAWYQQKQGKSPQLLIYNANSLEDGVPSRFSGSGSGTQYSMKINSMQPEDTATYFCKQTYDVPLTFGAGTKLELK", "Observed": "binds"}
{"Binder": "SC16.34 (antibody, V domains shown, murine mAb; variable regions only) VH: QIQLVQSGPELKRPGETVKISCKASGYTFTNYGMNWVKQAPGKGLKWMGWINTYTGDPTYADDFKGRFAFSLETSASTAYLQINNLKNEDTATYFCARIGGNSPSDYWGQGTSLTVSS VL: SIVMTQTPKFLLVSAGDRVTITCKASQSVSNDVAWYQQKPGQSPKLLIYYASNRYSGVPDRFTGSGYGTDFTFTISTVQAEDLAVYFCQQDYSSPWTFGGGTKLEIK", "Observed": "binds"}
